- Tested on: Spodoptera littoralis
- assay.method.text: Spodoptera littoralis (Egyptian cotton leaf worm) leaf disc test
- Type: in vivo
- condition.notes: foliar, 72 h, application rate 200 ppm, cotton leaf discs sprayed, L1 larvae, 3 days after infestation, read-out: control (at least one of mortality, anti-feedant effect, growth inhibition)
# percent control (mortality, anti-feedant effect or growth inhibition) at 200 ppm listing for each entry below

# example entries with known answers
1. CN(C(=O)c1cc(-c2cnn(-c3c(C(F)(F)F)c(OS(=O)(=O)C(F)(F)C(F)(F)C(F)(F)C(F)(F)F)nn3C)c2)ccc1Cl)C1CC1 | ≥ 80%
2. Cn1nc(OS(=O)(=O)C(F)(C(F)(F)F)C(F)(F)F)c(C(F)(F)F)c1-n1cc(-c2ccc(Cl)c(C(=O)N[C@H]3C[C@@H]3C#N)c2)cn1 (racemic) | ≥ 80%

Input: State percent control (mortality, anti-feedant effect or growth inhibition) at 200 ppm on Spodoptera littoralis. Entry: Cn1nc(OS(=O)(=O)C(F)(C(F)(F)F)C(F)(F)F)c(C(F)(F)F)c1-n1cc(-c2ccc(Cl)c(C(=O)NC3(C(F)(F)F)CC3)c2)cn1
Output: ≥ 80%
